assay: in vivo; conditions: male, FVB, mouse, in vivo, po, 25 mg/kg
OBSERVED PROPERTY: Tmax (h)
Value expressed in h; do not type the unit.

IN: Kindly indicate its recorded Tmax. Item: CC(C)c1nc(CN(C)C(=O)N[C@H](C(=O)N[C@@H](Cc2ccccc2)C[C@H](O)[C@H](Cc2ccccc2)NC(=O)OCc2cncs2)C(C)C)cs1
OUT: 1.08

* * *

experiment: Plasma pharmacokinetics and tissue distribution 2 h after oral cabazitaxel 10 mg/kg with vehicle or 25 mg/kg ritonavir in wild-type, Oatp1a/1b−/−, Oatp1a/1b/2b1−/−, OATP1B1- and OATP1B3-transgenic mice; type: in vivo; details: male, FVB, mouse, plasma, po, 10 mg/kg, Oatp1a/1b−/− mice; vehicle pretreatment; oral 10 mg/kg cabazitaxel
OBSERVED PROPERTY: Cmax (nM)
Number in nM, nothing else.

- SMILES CODE: "CC(=O)O[C@@]12CO[C@@H]1C[C@H](O)[C@@]1(C)C(=O)[C@H](O)C3=C(C)[C@@H](OC(=O)[C@H](O)[C@@H](NC(=O)OC(C)(C)C)c4ccccc4)C[C@@](O)([C@@H](OC(=O)c4ccccc4)[C@H]21)C3(C)C"
  Cmax / nM: 191

Next compound, please.
IN: Input CO[C@H]1C(=O)[C@]2(C)[C@@H](OC)C[C@H]3OC[C@@]3(OC(C)=O)[C@H]2[C@H](OC(=O)c2ccccc2)[C@]2(O)C[C@H](OC(=O)[C@H](O)[C@@H](NC(=O)OC(C)(C)C)c3ccccc3)C(C)=C1C2(C)C , output reported Cmax.
OUT: 2120
